molecular target: Nuclear receptor subfamily 1 group I member 3 (Homo sapiens) (UniProt Q14994); test: qHTS assay to identify small molecule agonists of the constitutive androstane receptor (CAR) signaling pathway (AID 1224839); conditions: HepG2 hCAR CYP2B6-luciferase, agonist mode, 24 h; series mostly up to 92.4 µM; further: nearly all actives have a fitted effect of over 15% in size;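 on activation: HepG2 cells stably carrying human CAR and a CYP2B6 luciferase reporter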
Sequence (Q14994 whole entry, looked up): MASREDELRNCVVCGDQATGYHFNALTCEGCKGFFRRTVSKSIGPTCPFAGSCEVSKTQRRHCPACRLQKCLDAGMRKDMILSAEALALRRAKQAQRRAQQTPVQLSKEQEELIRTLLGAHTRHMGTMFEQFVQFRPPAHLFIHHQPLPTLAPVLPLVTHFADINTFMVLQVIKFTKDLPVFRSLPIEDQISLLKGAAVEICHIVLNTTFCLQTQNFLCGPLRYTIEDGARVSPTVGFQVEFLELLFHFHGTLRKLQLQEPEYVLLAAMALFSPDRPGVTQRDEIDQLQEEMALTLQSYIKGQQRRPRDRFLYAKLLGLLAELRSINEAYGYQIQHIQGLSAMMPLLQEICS
Inconclusive results are not listed. Active and inactive are the calls of the source. The call rests on the fitted dose curve; in most records, active means well fitted activation curve with a large enough effect in the repeat runs; inconclusive means weak or mixed curves; inactive means no such curve, though single readings can be large or run the other way.
Outcomes: active, inactive

>>> answer_label("ClC(Cl)(Cl)c1ccc(C(Cl)(Cl)Cl)cc1")
"inactive"
>>> answer_label("O=[N+]([O-])c1cc[n+]([O-])cc1")
"inactive"
>>> answer_label("Cc1cccc(Oc2ccccc2)c1")
"inactive"
>>> answer_label("C=Cc1c(C)c2cc3[nH]c(cc4nc(cc5nc(cc1[nH]2)C(C)=C5CCC(=O)O)C(CCC(=O)O)=C4C)c(C)c3C=C")
"inactive"
>>> answer_label("Cc1ccccn1")
"inactive"
>>> answer_label("CCC(=O)OC(C)(C)C1CC=C(C)CC1 (stereo not given)")
"inactive"
>>> answer_label("CC(=O)N(CC(=O)N(C)C)c1ccccc1")
"inactive"
>>> answer_label("CC(=O)/C(C)=C/C1C(C)=CCCC1(C)C (stereo not given)")
"inactive"
>>> answer_label("NC(=S)N/N=C/c1cccnc1")
"inactive"
>>> answer_label("CCCCCCCCCO")
"inactive"
>>> answer_label("CCCCOc1ccc(CC(=O)NO)cc1")
"inactive"
>>> answer_label("CN(C)CCCNCCCN")
"inactive"
>>> answer_label("c1ccc(CNCc2ccccc2)cc1")
"inactive"
>>> answer_label("COc1ccc2[nH]c(S(=O)Cc3ncc(C)c(OC)c3C)nc2n1 (stereo not given)")
"active"
>>> answer_label("N#Cc1cc2ccccc2c2ccccc12")
"active"
>>> answer_label("c1ccc(OCc2ccc(CCCN3CCOCC3)cc2)cc1")
"active"
>>> answer_label("CCOc1ccc(NC(=O)CC(C)=O)cc1")
"inactive"
>>> answer_label("O=C1CCCCCO1")
"inactive"
>>> answer_label("FC(F)(F)C(F)(F)C(F)(F)C(F)(F)C(F)(F)C(F)(F)CCI")
"inactive"
>>> answer_label("COCCO")
"inactive"
>>> answer_label("Cc1ccc(O)c([C@H](CCN(C(C)C)C(C)C)c2ccccc2)c1")
"inactive"
>>> answer_label("C=C(C)C(=O)OCCN(C)C")
"inactive"
>>> answer_label("Oc1ccc(Sc2ccc(O)cc2)cc1")
"active"
>>> answer_label("Cn1c(N)nc2nc[nH]c2c1=O")
"inactive"
>>> answer_label("CC(=O)CC(=O)c1ccccc1")
"inactive"
>>> answer_label("Cc1ccc(C(=O)C(C)CN2CCCCC2)cc1 (stereo not given)")
"inactive"
>>> answer_label("CNS(=O)(=O)Cc1ccc2[nH]cc(CCN(C)C)c2c1")
"inactive"
>>> answer_label("O=C(NN1CCCC1)NS(=O)(=O)c1ccc(Cl)cc1")
"inactive"
>>> answer_label("COC(Cc1ccccc1)OC")
"inactive"
>>> answer_label("CC(O)C1CCCCC1 (stereo not given)")
"inactive"
